# measured_target: Torsin-1A-interacting protein 1 (Homo sapiens) (UniProt Q5JTV8)
# Sequence (Q5JTV8 whole entry, looked up): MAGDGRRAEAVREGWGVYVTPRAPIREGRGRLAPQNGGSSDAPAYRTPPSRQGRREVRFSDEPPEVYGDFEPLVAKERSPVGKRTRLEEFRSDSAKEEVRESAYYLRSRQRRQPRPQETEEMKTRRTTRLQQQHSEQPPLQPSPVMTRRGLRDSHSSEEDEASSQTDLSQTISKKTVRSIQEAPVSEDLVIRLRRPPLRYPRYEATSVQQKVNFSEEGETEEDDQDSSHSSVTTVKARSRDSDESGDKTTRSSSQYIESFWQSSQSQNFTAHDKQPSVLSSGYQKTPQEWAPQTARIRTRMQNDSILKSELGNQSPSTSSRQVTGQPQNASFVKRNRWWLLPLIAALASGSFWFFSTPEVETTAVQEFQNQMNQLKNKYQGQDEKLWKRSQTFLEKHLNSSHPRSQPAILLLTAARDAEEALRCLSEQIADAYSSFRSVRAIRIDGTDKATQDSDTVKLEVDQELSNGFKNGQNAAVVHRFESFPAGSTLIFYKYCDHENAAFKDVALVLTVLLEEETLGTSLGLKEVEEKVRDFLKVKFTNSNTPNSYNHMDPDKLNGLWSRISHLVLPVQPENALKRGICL
# assay: LAP1 binders from COS7 cell lysate, primary screen, small-molecule microarray, 635/667 nm fluorescence (AID 1116)
# particulars: COS7-hLAP1 lysate binding, 635 nm fluorescence, higher = more signal
endpoint_name: composite z-score

Observe how each entry below is paired with its result.
Cc1ccc(S[C@]2(C(=O)NCC(F)(F)F)CC(=O)N(C3CCCCC3)[C@@H]2c2ccc(CO)cc2)cc1 : -0.163
NC(=O)NCC#Cc1ccc2c(c1)[C@]1(C(=O)N2)[C@H](C(=O)Nc2nc3ccccc3s2)[C@H]2C(=O)O[C@H](c3ccccc3)[C@H](c3ccccc3)N2[C@@H]1c1ccc(OCCO)cc1 : 0.281
COc1cc2c(cc1O)C(c1ccc(CN3CCCC3)cc1)N(Cc1cccc(OC(F)(F)F)c1)CC2 (configuration not stated) : 0.62
Cc1ccc(S[C@]2(C(=O)NC3CC3)CC(=O)N(Cc3cc(C(F)(F)F)cc(C(F)(F)F)c3)[C@@H]2c2ccc(CO)cc2I)cc1 : 0.0541
COc1ccc([Si](C)(C)[C@@H]2[C@@H](CCO)O[C@]3(C(=O)N(Cc4ccccc4)c4ccc(N5C(=O)c6ccccc6Oc6ccccc65)cc43)[C@H]2C)cc1 : -0.361

Qu. Suppose we examine the compound N[C@@H](Cc1ccccc1)Cn1cc(C2(O)CCCCC2)nn1 ; what composite z-score value has been reported?
Ans. 0.228

Qu. Form field: reported composite z-score of CN(C)CCCCNC(=O)[C@H]1C[C@H]2C(=O)NCC(=O)N2[C@H]1c1cccc(OCCO)c1
Ans. 0.668

---

# assay: S. cerevisiae growth modulation with rapamycin, primary screen, strain BY4716, OD600, 96 h (AID 1091); further: test concentration not given here
# particulars: higher = more signal, called active from +8 up or from −8 down
endpoint_name: z-score
Number, no unit, nothing else.

Below, each entry is followed by its recorded z-score result.
C[C@H]1NC(=O)C([C@@H](C)OCc2ccccc2)NC(=O)[C@@]23C(=O)N[C@@H](Cc4ccccc4)C2[C@H](C)[C@@]2(C)O[C@H]2C3/C=C/C/C=C\CNC1=O (some centres not stated) : 1.06
C[N+](C)(C)CCCCCCNC(=O)[C@H]1C[C@H]2C(=O)NCC(=O)N2[C@H]1c1cccc(OCCO)c1 : 0.0891
COC(=O)[C@@]1(Cc2ccc(F)cc2)[C@H]2c3cc(C(=O)N4CCCC4)n(CCO)c3C[C@H]2CN1C(=O)c1ccccc1 : -0.164
C=CC[C@@]1(C(=O)O)N=C(c2ccc(OCCCO)cc2)O[C@@H]1c1ccccc1CN=[N+]=[N-] : -1.95
CCCCC(O)C1C=CC2C(=O)N(C)C(=O)C2N1Nc1ccccc1 (configuration not stated) : 1.99

Field: next molecule
Qu. Would you mind telling me what z-score value was observed for COCCOC(=O)N1C(=O)[C@@]2(c3ccccc31)[C@H](C(=O)N1CCCCCCC1)[C@H]1C(=O)O[C@H](c3ccccc3)[C@H](c3ccccc3)N1[C@@H]2c1ccc(O)cc1 ?
Ans. 1.63

---

# measured_target: Torsin-1A-interacting protein 1 (Homo sapiens) (UniProt Q5JTV8)
# assay: LAP1 binders from COS7 cell lysate, primary screen, small-molecule microarray, 635/667 nm fluorescence (AID 1116)
# particulars: COS7-hLAP1 lysate binding, 635 nm fluorescence, higher = more signal
Each entry falls into one class according to its composite z-score; the ranges are low range = under 0.3, mid range = from 0.3 up to 1, high range = 1 and over

CCCCN1CC=CC23O[C@@H]4C=CCOC(=O)[C@@H]4[C@H]2C(=O)N(CCO)[C@@H]3C1=O (some centres undefined) : low range
COc1ccc(CCNC(=O)[C@@H]2c3ccccc3C(=O)N(CC34CC5CC(CC(C5)C3)C4)[C@H]2c2ccc(CO)cc2)cc1 : mid range
CC(C)CNC(=O)[C@@H]1c2ccccc2C(=O)N(Cc2ccccc2)[C@H]1c1ccc(CO)cc1 : mid range
CC(C)C[C@@H]1NC(=O)[C@H]2C[C@@H](C(=O)NCCCCCCNC(=O)CS)[C@@H](c3ccc(O)cc3)N2C1=O : high range
COC(=O)[C@@]1(Cc2ccc(OC)cc2)[C@H]2c3cc(C(=O)N(C)C)n(Cc4ccsc4Br)c3C[C@H]2CN1C(=O)c1ccccc1 : high range

Qu. Using the reported composite z-score, which band applies to O=C(NCCO)C1=C[C@H](Oc2ccccc2I)[C@@H](O)[C@H](NCc2ccc(F)cc2)C1 ?
Ans. high range

Qu. Looking at COCCOC(=O)N1C(=O)[C@@]2(c3cc(C#CCCO)ccc31)[C@H](C(=O)N1CCc3cc(OC)c(OC)cc3C1)[C@H]1C(=O)O[C@H](c3ccccc3)[C@H](c3ccccc3)N1[C@@H]2c1ccccc1OCCO , which class would you pick?
Ans. mid range

Qu. The entry to classify is C=CCC(OC(C)=O)[C@@H]1[C@@H](N(Cc2cc3ccccc3o2)C(=O)c2cccc3ccccc23)c2cc(OCCCO)ccc2N1C(=O)c1ccc2ccccc2c1 (some centres undefined) ; which class holds it?
Ans. mid range

Qu. Band assignment needed for NCCCC[C@@H]1NC(=O)[C@H]2C[C@@H](C(=O)O)[C@@H](c3cccc(OCCO)c3)N2C1=O please.
Ans. high range

Qu. Note: place this compound into its band. Item: CO[C@H]1O[C@H](CO)[C@@H](OC(=O)Nc2ccc(C(F)(F)F)cc2)[C@H](OC(=O)Nc2ccccc2-c2ccccc2)[C@H]1OC(=O)Nc1ccccc1-c1ccccc1
Ans. mid range

Qu. Sort COc1ccc([Si](C)(C)[C@H]2[C@H](CCn3cc([C@H](O)c4ccccc4)nn3)O[C@@]3(C(=O)N(c4ccccc4)c4ccccc43)[C@@H]2C)cc1 into one of the categories.
Ans. low range

Qu. Sort into band: C=C(COC)/C(=C/C[C@@H](OC(C)=O)c1ccccc1OCCO)c1cc(C(=O)OC)ccc1OC
Ans. high range

Qu. Record CCCC=C(CCC)[C@@H](NC(=O)c1ccccc1)c1ccc(C(=O)OC)cc1 — which class?
Ans. low range

Qu. Which band does COC(=O)[C@@]1(CCS(=O)(=O)c2ccccc2)N=C(c2ccc(OCCCO)cc2)O[C@H]1c1ccccc1N=[N+]=[N-] fall in?
Ans. mid range

---

# Test system: Human papillomavirus type 1a protein E7 (residues 44-93)
# assay: HPV1a E7 fragment binders on microarrays, primary screen, biochemical, small-molecule microarray, residues 44-93, 635 nm fluorescence (AID 1108);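 further: E7 fragment applied at 1 µg/mL in TBST for 1 h at 4 C; score combines spot fluorescence with its signal to noise ratio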
# particulars: small-molecule microarray binding, fluorescence 635 nm; higher = more signal
Rule: yes for composite z-score not less than 0.9, no for anything less.

Sample answers from the record:
COc1ccc(C(O)C2C=CC3C(=O)N(C)C(=O)C3N2Nc2ccc([N+](=O)[O-])cc2[N+](=O)[O-])cc1OCc1ccccc1 (configuration not stated) : yes
C=CCNC(=O)[C@@H]1[C@H]2C(=O)O[C@H](c3ccccc3)[C@H](c3ccccc3)N2[C@H](c2ccccc2OCCO)[C@@]12C(=O)N(C(=O)OCCOC)c1ccc(C#CCCO)cc12 : yes
O=C1OCCC=C[C@H]2OC34C=CCN(c5ccc(Cl)cc5)C(=O)[C@H]3N(CCO)C(=O)[C@@H]4C12 (some centres not stated) : no

Qu. Can CC(C)CNC(=O)[C@@H]1c2ccccc2C(=O)N(CC23CC4CC(CC(C4)C2)C3)[C@H]1c1ccc(CO)cc1 be said to have composite z-score at or above 0.9?
Ans. yes

Qu. Decide: composite z-score of CN(C)CCCNC(=O)[C@@]1(Cc2ccccc2I)c2ccccc2C(=O)N(Cc2ccccc2)[C@H]1c1ccc(CO)cc1 >= 0.9?
Ans. yes

Qu. Exam item: decide whether the reported composite z-score for CC(C)CNC(=O)[C@@H]1c2ccccc2C(=O)N(C(C)C)[C@H]1c1ccc(CO)cc1 is at least 0.9.
Ans. no

---

# Tested on: Noggin (protein binding on small-molecule microarray)
# assay: Noggin binders on small-molecule microarray, primary screen, biochemical, 635/667 nm fluorescence (AID 1095);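 further: score merges 667 nm feature fluorescence with signal to noise over triplicate slides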
# particulars: 635 nm fluorescence, higher = more signal
Reported composite z-score by item:
Note: the reply should be a number with no unit written.

Record excerpt, results attached:
CCOC(=O)C[C@H]1[C@H](OC(=O)c2ccc(C(=O)c3ccccc3)cc2)[C@@H](NC(=O)c2ccc3ccccc3c2)c2cc(OCCCO)ccc2N1C(=O)c1ccc2ccccc2n1 : 0.836
COc1ccc([Si](C)(C)[C@@H]2[C@@H](CC(=O)N(CCO)Cc3ccccc3)O[C@]3(C(=O)N(Cc4ccc(N5CCC5=O)cc4)c4ccccc43)[C@H]2C)cc1 : 0.343
O=c1cccc(-c2ccccc2C(F)(F)F)o1 : -0.798

Qu. Param item = C=CC[C@@]1(C(=O)O)N=C(c2ccc(OCCCO)cc2)O[C@@H]1c1ccccc1CN=[N+]=[N-] ; retrieve measured composite z-score.
Ans. 0.373

Qu. Tell me the measured composite z-score of Cc1ccc(S[C@]2(C(=O)NC3CC3)CC(=O)N(Cc3cc(C(F)(F)F)cc(C(F)(F)F)c3)[C@@H]2c2ccc(CO)cc2I)cc1 , please.
Ans. 0.502

Qu. May I ask what composite z-score has been recorded for COc1ccc(CCNC(=O)[C@@]2(C)c3ccccc3C(=O)N(Cc3cc(C(F)(F)F)cc(C(F)(F)F)c3)[C@H]2c2ccc(CO)cc2)cc1 ?
Ans. 0.179

Qu. Fill in the blank: the reported composite z-score of CO[C@H]1O[C@H](CO)[C@@H](OC(=O)Nc2ccc(C(F)(F)F)cc2)[C@H](OC(=O)Nc2ccccc2-c2ccccc2)[C@H]1OC(=O)Nc1ccccc1-c1ccccc1 is ____.
Ans. 1.21

Qu. What does the record list as composite z-score for [N-]=[N+]=NCc1ccccc1[C@@H]1OC(c2ccc(OCCCO)cc2)=N[C@]1(Cc1ccccc1)C(=O)NCc1ccccc1 ?
Ans. -0.0171

Qu. Entry CC(C)C[C@@H]1NC(=O)C([C@@H](C)OCc2ccccc2)NC(=O)[C@@]23C(=O)N[C@@H](Cc4ccccc4)C2[C@H](C)[C@@]2(C)O[C@H]2C3/C=C/CC/C=C/CNC1=O (some centres undefined) : reported composite z-score = ?
Ans. 1.18

Qu. Which composite z-score is listed for CC(C)C[C@@H]1NC(=O)[C@@]23C(=O)N[C@@H](Cc4ccccc4)C2[C@H](C)[C@@]2(C)O[C@H]2C3/C=C/C/C=C\CNC(=O)[C@@H](CC(C)C)NC1=O (some centres undefined) ?
Ans. 0.914

Qu. Find the recorded composite z-score belonging to COc1cccc(OC)c1C(=O)O[C@H]1[C@@H]2OC(=O)[C@H](Cc3cccc(Br)c3)C/C=C/C[C@@H](Cc3cccc(Br)c3)C(=O)O[C@H]2[C@@H](OC)O[C@@H]1CO and report it.
Ans. 0.8

Qu. Item COC(=O)C(CC#Cc1ccc2c(c1)[C@]1(C(=O)N2)[C@H](c2ccc(O)cc2)N2[C@H](c3ccccc3)[C@H](c3ccccc3)OC(=O)[C@H]2[C@@H]1C(=O)N1CCc2cc(OC)c(OC)cc2C1)C(=O)OC has what recorded composite z-score?
Ans. 0.958

Qu. Consider the compound shown here: CCCCC=C[C@@H](NC(=O)c1ccc(C(F)(F)F)cc1)c1ccccc1 What is its recorded composite z-score?
Ans. -0.905

Qu. Any idea what its composite z-score is? The compound is CC(C)=CCN(C(=O)C#Cc1ccccc1)[C@H](CO)c1ccccc1
Ans. 0.69
